FYI, the data here is from ChEMBL document CHEMBL3232735.

pIC50: −log10 of the molar value.
# collection of pIC50 values tested on UniProtKB P00747
# Sequence (P00747 97-580 limits assumed): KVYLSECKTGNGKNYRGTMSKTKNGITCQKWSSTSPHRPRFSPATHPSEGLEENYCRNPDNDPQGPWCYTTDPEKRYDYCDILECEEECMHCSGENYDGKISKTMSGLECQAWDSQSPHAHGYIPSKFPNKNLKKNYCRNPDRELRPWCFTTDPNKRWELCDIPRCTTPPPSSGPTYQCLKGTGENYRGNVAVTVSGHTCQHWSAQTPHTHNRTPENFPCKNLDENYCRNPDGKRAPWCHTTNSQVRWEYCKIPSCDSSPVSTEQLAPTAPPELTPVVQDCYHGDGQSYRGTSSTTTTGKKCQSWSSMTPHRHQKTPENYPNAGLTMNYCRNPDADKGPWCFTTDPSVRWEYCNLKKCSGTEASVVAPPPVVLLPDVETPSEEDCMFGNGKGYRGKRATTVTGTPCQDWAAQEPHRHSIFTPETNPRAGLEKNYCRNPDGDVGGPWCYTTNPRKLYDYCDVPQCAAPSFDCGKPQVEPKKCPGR
# Sequence (P00747 581-810 limits assumed): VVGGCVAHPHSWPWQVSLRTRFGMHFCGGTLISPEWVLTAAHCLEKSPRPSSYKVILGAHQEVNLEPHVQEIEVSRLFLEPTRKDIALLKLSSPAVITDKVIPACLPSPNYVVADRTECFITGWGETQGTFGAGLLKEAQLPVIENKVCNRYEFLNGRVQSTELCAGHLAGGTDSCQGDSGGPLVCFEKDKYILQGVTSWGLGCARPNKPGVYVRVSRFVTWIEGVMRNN
quantity_measured: pIC50

Solved cases (6 shown):
- input_smiles: "Cn1c(CN2C(=O)CN(c3cccc(C(N)=O)c3)C2=O)cc2cnc(C(=O)N[C@H](C#N)CCCCN)nc21"
  measured_target: "UniProtKB P00747"
  pIC50: 4.00
- input_smiles: "Cn1c(CN2C(=O)CN(c3ccc(OCc4ccncc4)cc3)C2=O)cc2cnc(C(=O)N[C@H](C#N)CCCCN)nc21"
  measured_target: "UniProtKB P00747"
  pIC50: 4.06
- input_smiles: "Cn1c(CN2C(=O)CN(c3cccc(C#N)c3)C2=O)cc2cnc(C(=O)N[C@H](C#N)CCCCN)nc21"
  measured_target: "UniProtKB P00747"
  pIC50: 3.66
- input_smiles: "Cn1c(CN2C(=O)CN(c3ccc(S(N)(=O)=O)cc3)C2=O)cc2cnc(C(=O)N[C@H](C#N)CCCCN)nc21"
  measured_target: "UniProtKB P00747"
  pIC50: 3.59
- input_smiles: "Cn1c(CN2C(=O)CN(c3ccc(F)cc3)C2=O)cc2cnc(C(=O)N[C@H](C#N)CCCCN)nc21"
  measured_target: "UniProtKB P00747"
  pIC50: 3.89
- input_smiles: "Cn1c(CN2C(=O)CN(c3ccc(C#N)cc3)C2=O)cc2cnc(C(=O)N[C@H](C#N)CCCCN)nc21"
  measured_target: "UniProtKB P00747"
  pIC50: 3.68

(I) Cn1c(CN2C(=O)CN(c3ccc(OCc4ccncc4)c(C(N)=O)c3)C2=O)cc2cnc(C(=O)N[C@H](C#N)CCCCN)nc21
(II) Cn1c(CN2CC(=O)N(c3ccc(Oc4ccccc4)cc3)CC2=O)cc2cnc(C(=O)N[C@H](C#N)CCCCN)nc21
Sorting by pIC50 in descending order, would I or II appear first? Reply briefly: the label of your chosen item.
I
(I: 3.77, II: 3.02)
